IC50 by entry:
System: Sk-Mel-2
Experiment: in vitro
Assay type: cell-based, human
Observed property: IC50

>  <Molecule>
COC(=O)[C@H](CNC(=O)C1CC(CCCNc2ncccn2)C1)NS(=O)(=O)c1ccccc1 (stereo partly drawn)

>  <Subject of test>
Sk-Mel-2

>  <Test value>
> 100 µM

$$$$
>  <Molecule>
Cc1cc(C)c(S(=O)(=O)N[C@@H](CNC(=O)[C@H]2C[C@@H](CCCNc3ncccn3)C2)C(=O)O)c(C)c1

>  <Subject of test>
Sk-Mel-2

>  <Test value>
> 50 µM

$$$$
>  <Molecule>
COC(=O)[C@H](CNC(=O)[C@H]1C[C@@H](CCc2ccc3c(n2)NCCC3)C1)NS(=O)(=O)c1c(C)cc(C)cc1C

>  <Subject of test>
Sk-Mel-2

>  <Test value>
> 5 µM

$$$$
